Entries and their measured activity at 10 µM follow.
- System: IGROV1
- procedure-details: NCI60 one-dose screen
- Type: cell-based
- condition-context: Homo sapiens, IGROV-1, read-out: Growth percent
Could you give me the number in %? Just the number is fine.

Some solved entries appear below for comparison.
- compound: "CCC12C=CCN3CC[C@@]4(c5ccc(OC)cc5N(C)[C@H]4[C@@](O)(C(=O)OC)[C@@H]1OC(C)=O)[C@@H]32 (stereo partly drawn)"
  activity at 10 µM [%]: 98.4
- compound: "CC[C@]12C=CCN3CC[C@@]4(c5ccc(OC)cc5N(C)[C@H]4[C@@](O)(C(=O)OC)[C@@H]1OC(=O)CCCC[P+](c1ccc(C)cc1)(c1ccc(C)cc1)c1ccc(C)cc1)[C@@H]32 [10a]"
  activity at 10 µM [%]: -91.8
- compound: "CC[C@]12C=CCN3CC[C@@]4(c5ccc(OC)cc5N(C)[C@H]4[C@@](O)(C(=O)OC)[C@@H]1OC(=O)CCC[P+](c1ccccc1)(c1ccccc1)c1ccccc1OC)[C@@H]32"
  activity at 10 µM [%]: -43.2

Request: Fill in the recorded activity at 10 µM for this compound, with IGROV1 as test system: CCC12C=CCN3CCC4(c5ccc(OC)cc5N(C)C4C(O)(C(=O)OC)C1OC(=O)CCC[P+](c1ccc(C)cc1)(c1ccc(C)cc1)c1ccc(C)cc1)C32 (stereo not drawn)
Response: -89.5

Request: Fill in the recorded activity at 10 µM for this compound, with IGROV1 as test system: CC[C@]12C=CCN3CC[C@@]4(c5ccc(OC)cc5N(C)[C@H]4[C@@](O)(C(=O)OC)[C@@H]1OC(=O)CCCC[P+](c1ccccc1)(c1ccccc1)c1ccccc1)[C@@H]32 [compound 4, reference compound]
Response: -36.4

Request: Fill in the recorded activity at 10 µM for this compound, with IGROV1 as test system: CC[C@]12C=CCN3CC[C@@]4(c5ccc(OC)cc5N(C)[C@H]4[C@@](O)(C(=O)OC)[C@@H]1OC(=O)CCCC[P+](c1ccc(OC)cc1)(c1ccc(OC)cc1)c1ccc(OC)cc1)[C@@H]32 [10b]
Response: -92

Request: Fill in the recorded activity at 10 µM for this compound, with IGROV1 as test system: CC[C@]12C=CCN3CC[C@@]4(c5ccc(OC)cc5N(C)[C@H]4[C@@](O)(C(=O)OC)[C@@H]1OC(=O)CCCC[P+](C1CCCCC1)(C1CCCCC1)C1CCCCC1)[C@@H]32 [10d]
Response: -84.7

Request: Fill in the recorded activity at 10 µM for this compound, with IGROV1 as test system: CC[C@]12C=CCN3CC[C@@]4(c5ccc(OC)cc5N(C)[C@H]4[C@@](O)(C(=O)OC)[C@@H]1OC(=O)CCC[P+](c1ccc(F)cc1)(c1ccc(F)cc1)c1ccc(F)cc1)[C@@H]32
Response: -15

Request: Fill in the recorded activity at 10 µM for this compound, with IGROV1 as test system: CC[C@]12C=CCN3CC[C@@]4(c5ccc(OC)cc5N(C)[C@H]4[C@@](O)(C(=O)OC)[C@@H]1OC(=O)CCC[P+](C1CCCCC1)(C1CCCCC1)C1CCCCC1)[C@@H]32
Response: -86

Hey, just so you know, these numbers are from paper PMC12028158.
